Each entry below lists one item and its recorded half-life value.
experiment: Half life in mouse at 20 mg/kg, iv administered as bolus dose by band-culture bioassay; details: in vivo
Be sure to follow the number with its unit.

compound	assay readout	result
CCO/N=C(\C(=O)N[C@@H]1C(=O)N2C(C(=O)[O-])=C(/C=C/C[n+]3ccc(-c4csc(/C([O-])=N/C#N)c4)cc3)CS[C@H]12)c1csc(N)n1.[Na+]	half-life	45 min
CCO/N=C(\C(=O)N[C@@H]1C(=O)N2C(C(=O)[O-])=C(C[n+]3ccc(-c4cc(/C([O-])=N/C#N)[nH]n4)cc3)CS[C@H]12)c1csc(N)n1.[Na+] (stereo in doubt)	half-life	68.4 min
CCO/N=C(\C(=O)N[C@@H]1C(=O)N2C(C(=O)[O-])=C(/C=C/C[n+]3ccc4sc(/C([O-])=N/C#N)nc4c3)CS[C@H]12)c1csc(N)n1.[Na+]	half-life	42 min
CCO/N=C(\C(=O)N[C@@H]1C(=O)N2C(C(=O)[O-])=C(C=CC[n+]3ccc(-c4cc(/C([O-])=N/C#N)[nH]n4)cc3)CS[C@H]12)c1csc(N)n1.[Na+]	half-life	51 min

Task: Could you share which half-life value was measured for `CCO/N=C(\C(=O)N[C@@H]1C(=O)N2C(C(=O)[O-])=C(/C=C/C[n+]3ccc(-c4cc(/C([O-])=N/C#N)n(C)n4)cc3)CS[C@H]12)c1csc(N)n1.[Na+]` ?
Result: 49.2 min

Task: Another compound to check: `CO/N=C(\C(=O)N[C@@H]1C(=O)N2C(C(=O)O)=C(CSc3nc(=O)c(=O)[nH]n3C)CS[C@H]12)c1csc(N)n1`
Result: 38.4 min

Task: Another compound to check: `CCO/N=C(\C(=O)N[C@@H]1C(=O)N2C(C(=O)[O-])=C(/C=C/C[n+]3ccc(-c4csc(/C([O-])=N/C#N)n4)cc3)CS[C@H]12)c1csc(N)n1.[Na+]`
Result: 44.4 min

Task: Another compound to check: CO/N=C(\C(=O)N[C@@H]1C(=O)N2C(C(=O)[O-])=C(C[n+]3ccc(-c4cc(/C([O-])=N/C#N)[nH]n4)cc3)CS[C@H]12)c1csc(N)n1.[Na+] (stereo in doubt)
Result: 54.6 min

Task: Another compound to check: `CCO/N=C(\C(=O)N[C@@H]1C(=O)N2C(C(=O)[O-])=C(/C=C/C[n+]3ccc(-c4cc(/C([O-])=N/C#N)n(C)c4)cc3)CS[C@H]12)c1csc(N)n1.[Na+]`
Result: 52.2 min

Task: Another compound to check: N#C/N=C(\[O-])c1cc(-c2cc[n+](CC3=C(C(=O)[O-])N4C(=O)[C@@H](NC(=O)/C(=N\OCCF)c5csc(N)n5)[C@H]4SC3)cc2)n[nH]1.[Na+] (stereo in doubt)
Result: 63.6 min
